- system-name: NP-1 (Homo sapiens)
- test-summary: Biotinylated-VEGF-A165 (bt-VEGF-A165) binding to NP-1
- condition-set: 3 μM compound, read-out: Screen (% inhibition at 3 μM)
metric: inhibition at 3 µM

1) N=C(N)NCCC[C@H](NC(=O)c1sccc1NS(=O)(=O)c1cccc(NCc2csc(N3CCN(Cc4cccnc4)CC3)n2)c1)C(=O)O [Compound 59]: 58%
2) N=C(N)NCCC[C@H](NC(=O)c1sccc1NS(=O)(=O)c1cc(-c2cccc(CNCc3ccccn3)c2)cc2c1OCC2)C(=O)O [Compound 31]: 86%
3) N=C(N)NCCC[C@H](NC(=O)c1sccc1NS(=O)(=O)c1cccc(NCc2csc(N3CCN(Cc4ccccn4)CC3)n2)c1)C(=O)O [Compound 65]: 40%
4) COC(=O)CC1CCN(Cc2ccccc2-c2cc3c(c(S(=O)(=O)Nc4ccsc4C(=O)N[C@@H](CCCNC(=N)N)C(=O)O)c2)OCC3)CC1 [Compound 6]: 95%
5) N=C(N)NCCC[C@H](NC(=O)c1sccc1NS(=O)(=O)c1cc(-c2ccccc2CN2CCC(N3CCOCC3)CC2)cc2c1OCC2)C(=O)O [Compound 25]: 83%
6) Cc1[nH]ncc1CCCNCc1ccccc1-c1cc2c(c(S(=O)(=O)Nc3ccsc3C(=O)N[C@@H](CCCNC(=N)N)C(=O)O)c1)OCC2 [Compound 46]: 65%

* * *

- system-name: NP-1 (Homo sapiens, UniProt O14786)
- Sequence (O14786 22-923): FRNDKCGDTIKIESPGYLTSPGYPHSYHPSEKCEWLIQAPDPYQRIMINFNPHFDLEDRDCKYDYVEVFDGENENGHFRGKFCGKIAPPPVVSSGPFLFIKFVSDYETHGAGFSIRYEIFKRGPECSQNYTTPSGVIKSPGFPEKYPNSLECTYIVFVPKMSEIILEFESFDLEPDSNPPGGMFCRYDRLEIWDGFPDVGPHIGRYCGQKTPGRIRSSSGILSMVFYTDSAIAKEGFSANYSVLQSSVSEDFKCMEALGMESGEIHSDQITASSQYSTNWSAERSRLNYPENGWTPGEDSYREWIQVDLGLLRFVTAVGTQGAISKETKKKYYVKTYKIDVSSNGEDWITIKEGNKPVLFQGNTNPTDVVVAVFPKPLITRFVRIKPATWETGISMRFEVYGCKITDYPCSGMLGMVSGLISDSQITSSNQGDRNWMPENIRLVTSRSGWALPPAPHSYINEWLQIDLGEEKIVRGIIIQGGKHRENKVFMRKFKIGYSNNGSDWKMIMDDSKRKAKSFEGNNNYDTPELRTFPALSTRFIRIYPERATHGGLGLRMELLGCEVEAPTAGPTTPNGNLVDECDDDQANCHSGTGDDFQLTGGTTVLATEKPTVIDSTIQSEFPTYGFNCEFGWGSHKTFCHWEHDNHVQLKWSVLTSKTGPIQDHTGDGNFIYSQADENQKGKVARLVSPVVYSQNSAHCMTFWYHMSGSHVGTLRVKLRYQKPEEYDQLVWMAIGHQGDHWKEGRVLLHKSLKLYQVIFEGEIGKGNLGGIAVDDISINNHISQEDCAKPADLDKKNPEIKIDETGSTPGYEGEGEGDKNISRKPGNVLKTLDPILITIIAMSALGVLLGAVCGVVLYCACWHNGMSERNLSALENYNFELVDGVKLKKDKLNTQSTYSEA
- test-summary: Biotinylated-VEGF-A165 (bt-VEGF-A165) binding to NP-1
- condition-set: 3 μM compound, read-out: Screen (% inhibition at 3 μM)
metric: inhibition at 3 µM (%)

1) N=C(N)NCCC[C@H](NC(=O)c1sccc1NS(=O)(=O)c1cc(-c2ccccc2CNCc2ccncc2)cc2c1OCC2)C(=O)O: 56
2) N=C(N)NCCC[C@H](NC(=O)c1sccc1NS(=O)(=O)c1cc(-c2ccccc2CN2CCN(Cc3ccccn3)CC2)cc2c1OCC2)C(=O)O: 64
3) N=C(N)NCCC[C@H](NC(=O)c1sccc1NS(=O)(=O)c1cc(-c2ccccc2CN2CCN(Cc3ccncc3)CC2)cc2c1OCC2)C(=O)O: 56
4) CCN(Cc1ccncc1)c1nc(CNc2cccc(S(=O)(=O)Nc3ccsc3C(=O)N[C@@H](CCCNC(=N)N)C(=O)O)c2)cs1: 69
5) N=C(N)NCCC[C@H](NC(=O)c1sccc1NS(=O)(=O)c1cc(-c2ccccc2CNCc2ccccn2)cc2c1OCC2)C(=O)O: 70
6) N=C(N)NCCC[C@H](NC(=O)c1sccc1NS(=O)(=O)c1cc(-c2cccc(CN3CCN(c4ccncc4)CC3)c2)cc2c1OCC2)C(=O)O: 96

* * *

Measured inhibition at 30 µM accompanies every entry in the list below.
- system-name: NP-1 (Homo sapiens, UniProt O14786)
- test-summary: Biotinylated-VEGF-A165 (bt-VEGF-A165) binding to NP-1
- condition-set: 30 μM compound, read-out: Screen (% inhibition at 30 μM)
metric: inhibition at 30 µM (%)

1. N=C(N)NCCC[C@H](NC(=O)c1sccc1NS(=O)(=O)c1cc(-c2cccc(CN3CCN(Cc4ccccn4)CC3)c2)cc2c1OCC2)C(=O)O [Compound 29]: 100
2. N=C(N)NCCC[C@H](NC(=O)c1sccc1NS(=O)(=O)c1cc(-c2ccccc2CNCc2cccnc2)cc2c1OCC2)C(=O)O [Compound 9]: 97
3. N=C(N)NCCC[C@H](NC(=O)c1sccc1NS(=O)(=O)c1cc(-c2ccccc2CN2CCN(c3cccnc3)CC2)cc2c1OCC2)C(=O)O [Compound 10]: 97
4. N=C(N)NCCC[C@H](NC(=O)c1sccc1NS(=O)(=O)c1cccc(NCc2csc(N3CCNCC3)n2)c1)C(=O)O [Compound 58]: 96
5. N=C(N)NCCC[C@H](NC(=O)c1sccc1NS(=O)(=O)c1cccc(NCc2csc(N3CCN(Cc4ccccn4)CC3)n2)c1)C(=O)O [Compound 65]: 90
6. N=C(N)NCCC[C@H](NC(=O)c1sccc1NS(=O)(=O)c1cccc(NCc2csc(N3CCC(N4CCOCC4)CC3)n2)c1)C(=O)O [Compound 60]: 96
7. COc1ccccc1-c1nc(CNc2cccc(S(=O)(=O)Nc3ccsc3C(=O)N[C@@H](CCCNC(=N)N)C(=O)O)c2)no1 [Compound 69]: 79
8. N=C(N)NCCC[C@H](NC(=O)c1sccc1NS(=O)(=O)c1cc(-c2ccccc2CN2CCNCC2)cc2c1OCC2)C(=O)O [Compound 20]: 100
9. Cc1cc(CNCc2cccc(-c3cc4c(c(S(=O)(=O)Nc5ccsc5C(=O)N[C@@H](CCCNC(=N)N)C(=O)O)c3)OCC4)c2)no1 [Compound 48]: 99
10. N=C(N)NCCC[C@H](NC(=O)c1sccc1NS(=O)(=O)c1cc(-c2ccccc2CNCc2ccccn2)cc2c1OCC2)C(=O)O [Compound 18]: 100
11. N=C(N)NCCC[C@H](NC(=O)c1sccc1NS(=O)(=O)c1cc(-c2cccc(CN3CCC(N4CCOCC4)CC3)c2)cc2c1OCC2)C(=O)O [Compound 22]: 98
12. N=C(N)NCCC[C@H](NC(=O)c1sccc1NS(=O)(=O)c1cc(-c2cccc(CN3CCN(c4cccnc4)CC3)c2)cc2c1OCC2)C(=O)O [Compound 13]: 100
13. N=C(N)NCCC[C@H](NC(=O)c1sccc1NS(=O)(=O)c1cccc(NCc2cnn(CCN3CCN(c4ccccn4)CC3)c2)c1)C(=O)O [Compound 68]: 89

* * *

- system-name: NP-1 (Homo sapiens)
- test-summary: Biotinylated-VEGF-A165 (bt-VEGF-A165) binding to NP-1
- condition-set: 3 μM compound, read-out: Screen (% inhibition at 3 μM)
Use 60% as the dividing line for inhibition at 3 µM, with the line itself on the 1.0 side and lower values as 0.0.

1) N=C(N)NCCC[C@H](NC(=O)c1sccc1NS(=O)(=O)c1cccc(NCc2cnn(CCN3CCN(c4ccccn4)CC3)c2)c1)C(=O)O [Compound 68]: 0.0
2) Cn1cncc1CNCc1ccccc1-c1cc2c(c(S(=O)(=O)Nc3ccsc3C(=O)N[C@@H](CCCNC(=N)N)C(=O)O)c1)OCC2 [Compound 23]: 0.0
3) COC(=O)C1CCN(Cc2ccccc2-c2cc3c(c(S(=O)(=O)Nc4ccsc4C(=O)N[C@@H](CCCNC(=N)N)C(=O)O)c2)OCC3)CC1 [Compound 5]: 1.0
4) N=C(N)NCCC[C@H](NC(=O)c1sccc1NS(=O)(=O)c1cccc(NCc2csc(N3CCN(c4cccnc4)CC3)n2)c1)C(=O)O [Compound 62]: 1.0
5) N=C(N)NCCC[C@H](NC(=O)c1sccc1NS(=O)(=O)c1cc(-c2ccccc2CN2CCNCC2)cc2c1OCC2)C(=O)O [Compound 20]: 1.0
6) N=C(N)NCCC[C@H](NC(=O)c1sccc1NS(=O)(=O)c1cc(-c2cccc(CN3CCC(N4CCOCC4)CC3)c2)cc2c1OCC2)C(=O)O [Compound 22]: 1.0

* * *

- system-name: NP-1 (Homo sapiens, UniProt O14786)
- test-summary: Biotinylated-VEGF-A165 (bt-VEGF-A165) binding to NP-1
- condition-set: 3 μM compound, read-out: Screen (% inhibition at 3 μM)
Each entry below carries its recorded inhibition at 3 µM.
metric: inhibition at 3 µM (%)

1) N=C(N)NCCC[C@H](NC(=O)c1sccc1NS(=O)(=O)c1cccc(NCc2csc(N3CCC(N)CC3)n2)c1)C(=O)O: 72
2) Cc1ccnc(NCCNCc2cccc(-c3cc4c(c(S(=O)(=O)Nc5ccsc5C(=O)N[C@@H](CCCNC(=N)N)C(=O)O)c3)OCC4)c2)c1: 81
3) N#Cc1cccc(NC(=O)CNc2cccc(S(=O)(=O)Nc3ccsc3C(=O)N[C@@H](CCCNC(=N)N)C(=O)O)c2)c1: 25
4) N=C(N)NCCC[C@H](NC(=O)c1sccc1NS(=O)(=O)c1cccc(NCc2csc(N3CCOCC3)n2)c1)C(=O)O: 53
5) Cc1ccc(NCCCNCc2ccccc2-c2cc3c(c(S(=O)(=O)Nc4ccsc4C(=O)N[C@@H](CCCNC(=N)N)C(=O)O)c2)OCC3)nc1: 82
6) N=C(N)NCCC[C@H](NC(=O)c1sccc1NS(=O)(=O)c1cccc(NCc2csc(N3CCN(c4ncccn4)CC3)n2)c1)C(=O)O: 71
7) COc1ccccc1-c1nc(CNc2cccc(S(=O)(=O)Nc3ccsc3C(=O)N[C@@H](CCCNC(=N)N)C(=O)O)c2)no1: 37
8) N=C(N)NCCC[C@H](NC(=O)c1sccc1NS(=O)(=O)c1cc(-c2ccccc2CN2CCN(c3ccncc3)CC2)cc2c1OCC2)C(=O)O: 62
9) N=C(N)NCCC[C@H](NC(=O)c1sccc1NS(=O)(=O)c1cc(-c2cccc(CN3CCN(Cc4ccncc4)CC3)c2)cc2c1OCC2)C(=O)O: 80
10) N=C(N)NCCC[C@H](NC(=O)c1sccc1NS(=O)(=O)c1cc(-c2cccc(CN3CCN(CCO)CC3)c2)cc2c1OCC2)C(=O)O: 71
11) N=C(N)NCCC[C@H](NC(=O)c1sccc1NS(=O)(=O)c1cc(-c2cccc(CNCc3ccc(O)nc3)c2)cc2c1OCC2)C(=O)O: 82
12) Cn1cncc1CNCc1cccc(-c2cc3c(c(S(=O)(=O)Nc4ccsc4C(=O)N[C@@H](CCCNC(=N)N)C(=O)O)c2)OCC3)c1: 84
13) N=C(N)NCCC[C@H](NC(=O)c1sccc1NS(=O)(=O)c1cccc(NCc2csc(N3CCN(c4nccs4)CC3)n2)c1)C(=O)O: 68

Hello, the source for this data is patent US20120201749A1, in case you need it.
